System: HCT-15 colon
Assay: NCI-60 one-dose screen, 48 h
Settings: 10 µM unless noted
Compounds without any hit were thinned out: in the full panel of roughly 83,000, 20% have a hit. Calls of active or inactive are those of the source. How the source made its calls: active means growth percent below 10; inactive means the rest.
Classes used: class 1 for active, class 0 for inactive

compound=COc1ccc(/C=C2\N=C(c3ccccc3)N(c3cc(OC)c(OC)cc3C(=O)N3N=C(C)CC3=O)C2=O)cc1 tested_system="HCT-15 colon" qualitative_label="class 0"
compound=NC1(N)C=CC2=C(C=C1)C1(N)C3=C(C=CC(N)(N)C=C3)N2C2(N)C3=C(C=CC(N)(N)C=C3)N1C1=C2C=CC(N)(N)C=C1 tested_system="HCT-15 colon" qualitative_label="class 0"
compound=O=C(NO)c1ccc(Cn2c(=O)n(CCc3ccc(O)cc3)c(=O)c3ccccc32)cc1 tested_system="HCT-15 colon" qualitative_label="class 0"
compound=Cc1csc(Nc2nc(-c3cccc(Br)c3)nc(C(Cl)(Cl)Cl)n2)n1 tested_system="HCT-15 colon" qualitative_label="class 0"
compound=COc1ccc(-n2c(/C=C/c3ccc(O)c(OC)c3)cc(/C=C/c3ccc(O)c(OC)c3)nc2=O)cc1 tested_system="HCT-15 colon" qualitative_label="class 0"
compound=COc1cc(-c2cc(-c3nc4ccccc4[nH]3)[nH]n2)cc(OC)c1OC tested_system="HCT-15 colon" qualitative_label="class 0"
compound=COc1cc(/C=C/c2cc(/C=C/c3ccc(O)c(OC)c3)n(-c3ccccc3)c(=O)n2)ccc1O tested_system="HCT-15 colon" qualitative_label="class 0"
compound=COc1cnc2c(c1)C(=O)c1c-2n(CCCNCCN2CCOCC2)c(=O)c2cc([N+](=O)[O-])ccc12 tested_system="HCT-15 colon" qualitative_label="class 1"
compound=Clc1ccccc1-c1nc(Nc2nc3ccccc3s2)nc(C(Cl)(Cl)Cl)n1 tested_system="HCT-15 colon" qualitative_label="class 0"
compound=CCN(CC)CCCCCCNc1ccnc2cc(Cl)ccc12 tested_system="HCT-15 colon" qualitative_label="class 0"
compound=O=C1C(=O)N(CCCCn2cc(-c3ccccc3)nn2)c2ccccc21 tested_system="HCT-15 colon" qualitative_label="class 0"
compound=Nc1c(C(=O)Nc2cccc(Br)c2)sc2nc3c(cc12)C(=O)CCC3 tested_system="HCT-15 colon" qualitative_label="class 0"
compound=Oc1ccccc1/C=N\NC(=S)Nc1ccc(F)cc1 tested_system="HCT-15 colon" qualitative_label="class 0"
compound=CN(C)c1ccc(-c2ccc(-c3ccc(C(=N)N)c(F)c3)s2)cc1 tested_system="HCT-15 colon" qualitative_label="class 1"
compound=O=C1/C(=C\c2ccco2)SC(=S)N1CCc1ccc(O)cc1 tested_system="HCT-15 colon" qualitative_label="class 0"
compound=Cc1ccc2oc(=O)cc(-c3sc(N4CCCCC4)nc3-c3ccccc3)c2c1 tested_system="HCT-15 colon" qualitative_label="class 0"
compound=Cc1ccc(Sc2sc(-c3ccccc3)nc2[P+](c2ccccc2)(c2ccccc2)c2ccccc2)cc1 tested_system="HCT-15 colon" qualitative_label="class 1"
compound=Fc1ccc2[nH]cc(-c3nc(-c4c[nH]c5ncccc45)cs3)c2c1 tested_system="HCT-15 colon" qualitative_label="class 0"
compound=O=S(=O)(NCCNc1cc(-c2cn(-c3ccccc3)nc2-c2cccc(O)c2)ccn1)c1ccc(Cl)cc1 tested_system="HCT-15 colon" qualitative_label="class 1"
compound=COC(=O)[C@]12CC[C@@H](C(C)=O)[C@@H]1[C@H]1CC[C@@H]3[C@@]4(C)C/C(=C/c5cccnc5)C(=O)C(C)(C)[C@@H]4CC[C@@]3(C)[C@]1(C)CC2 tested_system="HCT-15 colon" qualitative_label="class 0"
compound=C=C(C)[C@@H]1CC[C@]2(C=O)CC[C@]3(C)[C@H](CC[C@@H]4[C@@]5(C)C/C(=C/c6cccnc6)C(=O)C(C)(C)[C@@H]5CC[C@]43C)[C@@H]12 tested_system="HCT-15 colon" qualitative_label="class 0"
compound=O=C(O)/C(=C/c1ccc(O)cc1)c1ccccc1 tested_system="HCT-15 colon" qualitative_label="class 0"
compound=Cn1cc(-c2csc(-c3cn(CCNC(=O)OC(C)(C)C)c4ccccc34)n2)c2cccnc21 tested_system="HCT-15 colon" qualitative_label="class 0"
compound=S=c1[nH]nc2ccccn12 tested_system="HCT-15 colon" qualitative_label="class 0"
compound=O=C(N/N=C\c1c(O)ccc2ccccc12)C1CC1 tested_system="HCT-15 colon" qualitative_label="class 0"
compound=Cc1cc2nc3c4cc([N+](=O)[O-])cc([N+](=O)[O-])c4n(CCN(C)C)c3nc2cc1C tested_system="HCT-15 colon" qualitative_label="class 0"
compound=Clc1ccc2[nH]cc(-c3nc(-c4c[nH]c5ncccc45)cs3)c2c1 tested_system="HCT-15 colon" qualitative_label="class 1"
compound=C=C(C)[C@@H]1CC[C@]2(C)[C@H](CC=C3[C@@H]4CC(C)(C)CC[C@]4(C=O)CC[C@]32C)[C@@]1(C)CCCN tested_system="HCT-15 colon" qualitative_label="class 0"
compound=CC1(C)CC[C@]2(C(=O)NCCNCCN)CC[C@]3(C)C(=CC[C@@H]4[C@@]5(C)CCC(=O)C(C)(C)[C@@H]5CC[C@]43C)[C@@H]2C1 tested_system="HCT-15 colon" qualitative_label="class 0"
compound=Cc1cc(Nc2ccc(F)cc2)nc(N2CCN(c3ccnc4cc(Cl)ccc34)CC2)n1 tested_system="HCT-15 colon" qualitative_label="class 1"
compound=COc1cc2c(cc1-c1c(C)noc1C)ncc1nc(C3CC3)n([C@H](C)COC(F)F)c12 tested_system="HCT-15 colon" qualitative_label="class 0"
compound=CC(C)=CCC[C@](C)(O)[C@H]1CC[C@]2(C)[C@@H]1CC[C@@H]1[C@@]3(C)C/C(=C/c4ccc(Br)cc4)C(=O)C(C)(C)[C@@H]3CC[C@]12C tested_system="HCT-15 colon" qualitative_label="class 0"
compound="Cc1ccc(NC2CC(=O)N(c3c(C)cc(C)cc3C)C2=O)c(C)c1 (stereo unspecified)" tested_system="HCT-15 colon" qualitative_label="class 0"
compound=CC(C)(C)c1cc(-n2c(-c3ccc(Cl)cc3)nc3cc(C(=O)Nc4ccc(Cl)cc4)ccc32)n[nH]1 tested_system="HCT-15 colon" qualitative_label="class 0"
compound="CC1(C)c2ccccc2C(=O)C1(Br)Cc1ccccc1 (stereo unspecified)" tested_system="HCT-15 colon" qualitative_label="class 0"
compound=Cn1cc(-c2csc(-c3cn(CCCN4CCCCC4)c4ccc(F)cc34)n2)c2cccnc21 tested_system="HCT-15 colon" qualitative_label="class 0"

The values you see were collected from PubChem BioAssay (NCI).
